# Lookup of reported TGI keyed by entry
# Test system: CCRF-CEM leukemia
# method_description: NCI tumour cell line growth inhibition, 48 h
Where a SMILES comes first, the peptide text is derived from it. [ ]: non-standard residue; d: D form. The star is where a group is joined. Phe(4-NO2) = N[CH](Cc1ccc([N+](=O)[O-])cc1)C(=O)O; Cbz = O=C(OCc1ccccc1)*

>>> reported_measurement("CCOC(=O)CCC(NC(=O)OCc1ccccc1)C(=O)NC(CCC(=O)OCC)C(=O)NC(Cc1ccc([N+](=O)[O-])cc1)C(=O)NC(CCC(=O)OCC)C(=O)NC(CCC(=O)OCC)C(=O)OCC (stereo unspecified) (Cbz-E(OEt)E(OEt)[Phe(4-NO2)]E(OEt)E(OEt)-OEt; configuration not given here)")
"> 100 µM"
>>> reported_measurement("CC(C)(Br)C(Br)CCC(=CCBr)CBr (mixture of isomers)")
"6.1 µM"
>>> reported_measurement("O=C(NCCc1ccccc1)C(c1ccccc1)(c1ccccc1)c1ccccc1")
"> 100 µM"

Dear colleague, I am looking for the recorded TGI of the following compound: "O=C1Oc2ccccc2C(=O)/C1=C/N1C(=O)/C(=C/c2ccc3c(c2)OCO3)SC1=S"
> 61.3 µM

Dear colleague, I am looking for the recorded TGI of the following compound: "C/C1=C/C(=O)O[C@@H]2C[C@@H](CC[C@H](C)/C=C\C=C\CC1)O[C@@](O)([C@@H]1CSC(=O)N1CO)C2"
> 41.4 µM

Dear colleague, I am looking for the recorded TGI of the following compound: "CC(=O)OCc1ccc2oc(=O)c(C(=O)Oc3cccc(Cl)c3)cc2c1"
> 100 µM

###

# System: MALME-3M melanoma
# method_description: NCI tumour cell line growth inhibition, 48 h; in the data active means GI50 below about 0.43 µM; inactive means the rest
A correct response names exactly one class from active, inactive

>>> class_assignment("CCN(CC)CC.CCOc1ccc(NC(=O)N=C=[N-])cc1.[CH-]1CCCCC1.[CH-]1CCCCC1.[CH-]1CCCCC1.[Cl-].[Sn+4]")
"active"
>>> class_assignment("C[C@@H](N)C1CCC(C(=O)Nc2ccncc2)CC1 (some centres undefined)")
"inactive"
>>> class_assignment("Cc1ccc2[nH]c3c(C)c4c(c(C)c3c2c1)CN(C)C=C4")
"inactive"
>>> class_assignment("O=C1/C=C/[C@@H](O)[C@@H]2C[C@@H](O)C[C@H]2/C=C/CCC[C@H](CCc2ccc(C(F)(F)F)cc2)O1")
"active"
>>> class_assignment("Cc1cc(C(=O)Nc2nc3cccc(Cl)c3n2[C@@H]2CCCCN(C(=O)/C=C/CN(C)C)C2)ccn1")
"inactive"

Tell me the assay call for "Cn1cc(-c2csc(-c3cn(C)c4ccc(Br)cc34)n2)c2cnccc21" please.
inactive

Tell me the assay call for COC(=O)C(Cc1cnc[nH]1)NC(=O)CNC(=O)CCCn1c(=O)c2c3ccccc3n(C)c2n2nnc(-c3ccccc3)c12 (centres undefined) please.
inactive

Tell me the assay call for "O=C(CCCCCCCn1cc(-c2cccnc2)nn1)Nc1ccccc1-c1ccccc1" please.
inactive

Tell me the assay call for "COc1cc(-c2nc(NC(C)=O)sc2-c2ccnc(NCCNS(=O)(=O)c3ccccc3)n2)ccc1Cl" please.
inactive

###

# Tested on: T-47D breast
# method_description: NCI tumour cell line growth inhibition, 48 h; in the data active means GI50 below about 0.43 µM; inactive means the rest
A correct response names exactly one class from label 1 (active), label 0 (inactive)

Worked examples follow.
>>> class_assignment("CCc1c2c(nc3cc4c(c(N)c13)OCO4)-c1cc3c(c(=O)n1C2)COC(=O)[C@]3(O)CC")
"label 1"
>>> class_assignment("CNC(=O)c1c(NC(=O)c2ccc(C(F)(F)F)cc2)sc2c1CCC(=O)C2")
"label 1"
>>> class_assignment("CCOC(CCCNCCCn1c2c(c3cc(OC)c(OC)cc3c1=O)C(=O)c1cc3c(cc1-2)OCO3)OCC")
"label 0"
>>> class_assignment("Cc1nc2ccccn2c1NC(=O)NNC(=S)Nc1ccc(Br)cc1")
"label 0"

Tell me the assay call for CCN(CC)CCCC(C)Nc1cc(-c2ccc(C(F)(F)F)cc2)c(C#N)c2nc3ccccc3n12 (stereo not given) please.
label 0

###

# System: A549 NSCLC
# method_description: NCI tumour cell line growth inhibition, 48 h; in the data active = GI50 below about 0.43 µM; inactive = the rest
A correct response names exactly one class from true (1) (active), false (0) (inactive)

Worked examples follow.
>>> class_assignment("O=Nc1ccc(O)c2ccccc12")
"false (0)"
>>> class_assignment("COc1cc(-c2nc(NC(C)=O)sc2-c2ccnc(NCCNS(=O)(=O)c3ccccc3)n2)ccc1Cl")
"false (0)"

Tell me the assay call for "Cc1cc(C(=O)Nc2nc3cccc(Cl)c3n2[C@@H]2CCCCN(C(=O)/C=C/CN(C)C)C2)ccn1" please.
false (0)

Tell me the assay call for COC(=O)C(Cc1cnc[nH]1)NC(=O)CNC(=O)CCCn1c(=O)c2c3ccccc3n(C)c2n2nnc(-c3ccccc3)c12 (centres undefined) please.
false (0)

Tell me the assay call for "NCCCCCCCCn1c2c(c3ccccc3c1=O)C(=O)c1ccccc1-2" please.
false (0)

###

# Tested on: HS 578T breast
# method_description: NCI tumour cell line growth inhibition, 48 h; in the data active = GI50 below about 0.43 µM; inactive = the rest
A correct response names exactly one class from active, inactive

Worked examples follow.
>>> class_assignment("Fc1ccc(-c2nn3c(CNc4ccccc4)nnc3s2)cc1")
"inactive"
>>> class_assignment("CNC(=O)c1c(NC(=O)c2ccc(C(F)(F)F)cc2)sc2c1CCC(=O)C2")
"inactive"
>>> class_assignment("C=CC(=O)N1C/C(=C\\c2ccccc2)C(=O)/C(=C/c2ccccc2)C1")
"inactive"
>>> class_assignment("COc1cc(-c2nc(NC(C)=O)sc2-c2ccnc(NCCNS(=O)(=O)c3ccccc3)n2)ccc1Cl")
"inactive"
>>> class_assignment("Cc1cc(C(=O)Nc2nc3cccc(Cl)c3n2[C@@H]2CCCCN(C(=O)/C=C/CN(C)C)C2)ccn1")
"inactive"

Tell me the assay call for "O=C(NCCc1ccccc1)C(c1ccccc1)(c1ccccc1)c1ccccc1" please.
inactive

Tell me the assay call for "COc1ccccc1-c1cc(/C=C2\C(=O)Nc3ncc(Br)cc32)cc(Br)c1O" please.
inactive

Tell me the assay call for "COC(=O)[C@H]1C(=O)[C@@]2(C)[C@H]([C@H](OC(=O)c3ccccc3)[C@]3(O)C[C@H](OC(=O)[C@H](O)[C@@H](NC(=O)c4ccc(F)cc4)c4ccccc4)C(C)=C1C3(C)C)[C@]1(OC(C)=O)CO[C@@H]1C[C@@H]2O" please.
active

Tell me the assay call for "CN[C@@H](C)C(=O)N[C@H]1CN(C(=O)CC(C)C)CC[C@H]2CC[C@@H](C(=O)NC(c3ccccc3)c3ccccc3)N2C1=O" please.
inactive

Tell me the assay call for "CCN(CC)CC.CCOc1ccc(NC(=O)N=C=[N-])cc1.[CH-]1CCCCC1.[CH-]1CCCCC1.[CH-]1CCCCC1.[Cl-].[Sn+4]" please.
active

###

# Lookup of reported TGI keyed by entry
# Test system: NCI-H460 lung
# method_description: NCI tumour cell line growth inhibition, 48 h

>>> reported_measurement("NC1OC(COC(=O)c2ccccc2)C(O)C(OC(=O)c2ccccc2)C1OC(=O)c1ccccc1 (stereo unspecified)")
"27.9 µM"
>>> reported_measurement("CCOC(CCCNCCCn1c2c(c3cc(OC)c(OC)cc3c1=O)C(=O)c1cc3c(cc1-2)OCO3)OCC")
"7.3 µM"

Dear colleague, I am looking for the recorded TGI of the following compound: "CNC(=O)c1c(NC(=O)c2ccc(C(F)(F)F)cc2)sc2c1CCC(=O)C2"
4.19 µM

Dear colleague, I am looking for the recorded TGI of the following compound: "C/C(=C/c1ccccc1)CN(C(=O)/C=C\Sc1ccccc1)C(C)(C)C"
> 100 µM

Dear colleague, I am looking for the recorded TGI of the following compound: "O=C(Nc1ccc(Cl)cc1)NS(=O)(=O)c1coc2ccccc2c1=O"
> 10 µM

Dear colleague, I am looking for the recorded TGI of the following compound: "O=c1[nH]cc(/C=N\Nc2ccccc2)c(=O)[nH]1"
> 100 µM

Dear colleague, I am looking for the recorded TGI of the following compound: "c1ccc(N=C(N2CCOCC2)N(CCN2CCOCC2)c2ccccc2)cc1"
> 100 µM

Dear colleague, I am looking for the recorded TGI of the following compound: "C=C(C)[C@@H]1CC[C@]2(C(N)=O)CC[C@]3(C)[C@H](CC[C@@H]4[C@@]5(C)CC[C@H](O)C(C)(C)[C@@H]5CC[C@]43C)[C@@H]12"
4.84 µM

Dear colleague, I am looking for the recorded TGI of the following compound: "CC(/C=C/C(=O)c1sc(-n2nc(-c3ccccc3)cc2-c2ccccc2)nc1C)=C\c1ccccc1"
> 100 µM

Dear colleague, I am looking for the recorded TGI of the following compound: "CC1=[N+]([O-])C(C)(C)N(N=O)C1(C)C"
> 10 µM

Dear colleague, I am looking for the recorded TGI of the following compound: O=c1[nH]c(=O)n(C2OC(CO)C(O)C2O)c2ncc(-c3ccc(-c4ccccc4)cc3)nc12 (stereo unspecified)
> 20 µM
